tested on: UACC-62 melanoma; assay: NCI-60 one-dose screen, 48 h (100 = growth as untreated, 0 = no growth, -100 = all killed); details: 10 µM unless noted
Compounds without any hit were thinned out: in the full panel of roughly 83,000, 20% have a hit. The source made the active and inactive calls. The calls were made as follows: active = growth percent below 10; inactive = the rest.
Items are presented alongside their recorded growth.

Example cases with answers are listed next.
- compound: "C=C1C(=O)O[C@H]2[C@H]1CC/C(COC(=O)CSCCSCC(=O)OC/C1=C/CC[C@@]3(C)O[C@H]3[C@H]3OC(=O)C(=C)[C@@H]3CC1)=C\\CC[C@@]1(C)O[C@@H]21"
  recorded.result: "25.6% (inactive)"
- compound: "CCCCN1C(=O)/C(=c2\\sc3n(c2=O)C2C(NN=3)N(CC)C(=O)N2CC)c2ccccc21 (centres undefined)"
  recorded.result: "18.9% (inactive)"

// sample "O=C(O)c1ccc(-n2cc(/C=N/Nc3ccc(F)cc3)c(-c3cc4ccccc4oc3=O)n2)cc1" , its growth was 46.1% (inactive)

// sample "COC(=O)c1ccc2c(c1)C(=O)c1c-2n(CCCN)c(=O)c2cc([N+](=O)[O-])ccc12" , its growth was -100% (active)

// sample "CNC(=O)c1c(NC(=O)c2ccc(C(F)(F)F)cc2)sc2c1CCC(=O)C2" , its growth was -29.1% (active)

// sample "COC(=O)/C=C1/SC(=Nc2ccc(C)cc2)N(CCc2c[nH]c3ccc(O)cc23)C1=O" , its growth was 42.2% (inactive)

// sample "Cc1nc2ncnc(Cl)c2[nH]1" , its growth was 100% (inactive)

// sample "N#C/C(=C\c1ccc(-c2ccc(Cl)cc2)o1)C(=O)Nc1ncc(Cc2ccc(Cl)cc2)s1" , its growth was 46.1% (inactive)

// sample "N#Cc1nn(-c2cc(=O)[nH]c3ccc(Cl)cc23)c(N)c1C#N" , its growth was 81.9% (inactive)

* * *

test system: HCT-116 colon; test: NCI-60 one-dose screen, 48 h; settings: 10 µM unless noted
The panel holds about 83,000 compounds, 20% with a hit somewhere; the sample as a whole holds those more often. The source made the active and inactive calls. The calls were made as follows: active = growth percent below 10; inactive = the rest.
Entry note: the call must match one of y (active), n (inactive)

Check out these entries, answers already filled in.
- sample.smiles: "CCOC(=O)c1c(C)c2c(n1C)CSc1cc(C(=O)c3ccccc3)c(=O)[nH]c1-2"
  target.of.assay: "HCT-116 colon"
  cat: "n"
- sample.smiles: "C=CCn1c(SCC(=O)Nc2ccc(C(=O)/C=C/c3ccc(Cl)cc3)cc2)nnc1-c1cc(-c2ccc(S(N)(=O)=O)cc2)nc2ccccc12"
  target.of.assay: "HCT-116 colon"
  cat: "y"
- sample.smiles: "Fc1ccc2[nH]cc(-c3nonc3-c3c[nH]c4ccc(Br)cc34)c2c1"
  target.of.assay: "HCT-116 colon"
  cat: "n"
- sample.smiles: "O=C(Nc1cc(Cl)ccc1O)c1ccc(Nc2ccnc(C(F)(F)F)c2)cc1"
  target.of.assay: "HCT-116 colon"
  cat: "n"
- sample.smiles: "CC(C)CCNC(=O)Cn1cccc(NC(=O)OCc2ccccc2)c1=O"
  target.of.assay: "HCT-116 colon"
  cat: "n"
- sample.smiles: "CCCCC(=O)Nc1ncc(Cc2ccc(Cl)cc2)s1"
  target.of.assay: "HCT-116 colon"
  cat: "n"

Prompt line: Look up the recorded call for "Cc1cccc2c1NC(=O)C2(c1ccc(O)cc1)c1ccc(O)cc1" in this test.
Response line: n

Prompt line: Look up the recorded call for "O=C1/C(=C/c2ccc(-c3ccc(Br)cc3)o2)SC(=S)N1CCc1ccc(O)cc1" in this test.
Response line: n

Prompt line: Look up the recorded call for "O=C(CSc1nnc2n1S(=O)(=O)c1ccccc1N2c1ccccc1)Nc1nc2ccc(F)cc2s1" in this test.
Response line: n

Prompt line: Look up the recorded call for "C/C(=N\NC(=O)c1ccccc1O)c1cccc(/C(C)=N/NC(=O)c2ccccc2O)n1" in this test.
Response line: n

Prompt line: Look up the recorded call for "O=C1NC(=O)c2c1c1c3ccccc3ccc1c1[nH]c3ccc(Br)cc3c21" in this test.
Response line: y

Prompt line: Look up the recorded call for "COc1cc(C(=O)n2nc(N3CCN(C)CC3)c3cc(N)ccc32)cc(OC)c1OC" in this test.
Response line: y

Prompt line: Look up the recorded call for "CN(C)Cc1ccc(NC(=O)c2cncc(C#Cc3cnc(N)c4ncccc34)c2)cc1F" in this test.
Response line: n

Prompt line: Look up the recorded call for "N#Cc1cccc(-c2c(-c3ccc4ccccc4c3)oc3ccccc3c2=O)c1" in this test.
Response line: n
